- ASSAY TEXT: Bioavailability in SD rats (I.V. and PO)
- Type: in vivo
- COND: rat, blood, male, I.V. 5 mg/kg, PO 10 mg/kg via gavage
Where a name gives a salt, the structure may show the parent alone.

COMPOUND: CCOc1cc2ncc(C#N)c(Nc3ccc(Oc4ccccc4)cc3)c2cc1NC(=O)/C=C/CN(C)C [Citrate salt]
bioavailability [%]: 36.7
//
COMPOUND: CCOc1cc2ncc(C#N)c(Nc3ccc(Oc4ccccc4)cc3)c2cc1NC(=O)/C=C/CN(C)C.O=C(O)/C=C\C(=O)O [Maleate salt]
bioavailability [%]: 49.6
